target: FLT-3 kinase (Homo sapiens, UniProt P36888); construct: human FLT-3 (Arg571-Ser993); GST (N); purchased Cell Signaling Technology HTScan FLT-3 Kinase Assay Kit; host or cells: baculovirus expression system; experiment: FLT-3 kinase DELFIA assay (HTScan FLT-3 Kinase Assay Kit); assay type: biochemical; settings: 1 uM compound, 20 uM ATP
readout label: inhibition at 1 µM (%)

Examples with their reported inhibition at 1 µM follow.
smiles_entry=O=c1[nH]c2cccccc-2c1-c1nc2cc(N3CCC(N4CCCC4)CC3)ccc2[nH]1 readout_label="inhibition at 1 µM" measured_result=84.1
smiles_entry=O=c1[nH]c2cccccc-2c1-c1nc2cc3ccccc3cc2[nH]1 readout_label="inhibition at 1 µM" measured_result=40.2
smiles_entry=CS(=O)(=O)N1CCN(c2ccc3[nH]c(-c4c5cccccc-5[nH]c4=O)nc3c2)CC1 readout_label="inhibition at 1 µM" measured_result=81.5

a. O=c1[nH]c2cccccc-2c1-c1cn2cccnc2n1
b. COc1ccccc1NC(=O)Nc1ccc2[nH]c(-c3c4cccccc-4[nH]c3=O)nc2c1
c. O=c1[nH]c2cccccc-2c1-c1nc2cc(N3CCOCC3)ccc2[nH]1
Q: List items by inhibition at 1 µM in falling order. Please write the labels in the order that was asked for.
Result: c, b, a
(c: 75%, b: 19%, a: 1.6%)

I. O=c1[nH]c2cccccc-2c1-c1nc2cc(N3CCCN(c4ncccn4)CC3)ccc2[nH]1
II. O=c1[nH]c2cccccc-2c1-c1cn2cc(Br)ccc2n1
Q: // select label with min value of measured inhibition at 1 µM from [ I , II ] # respond with the chosen item's label
Result: II
(II: 23.4%, I: 69.5%)

P. O=C(Nc1ccc(C(F)(F)F)cc1)Nc1ccc2[nH]c(-c3c4cccccc-4[nH]c3=O)nc2c1
Q. O=c1[nH]c2cccccc-2c1-c1nc2cc(N3CCN(c4ccccn4)CC3)ccc2[nH]1
Q: From the recorded data, which exceeds the other in inhibition at 1 µM: P or Q ? # respond with the chosen item's label
Result: Q
(Q: 79.2%, P: 53.3%)

---

Target: FLT-3 kinase (Homo sapiens)
Construct: human FLT-3 (Arg571-Ser993); GST (N); purchased Cell Signaling Technology HTScan FLT-3 Kinase Assay Kit; host or cells: baculovirus expression system
Sequence (P36888 571-993): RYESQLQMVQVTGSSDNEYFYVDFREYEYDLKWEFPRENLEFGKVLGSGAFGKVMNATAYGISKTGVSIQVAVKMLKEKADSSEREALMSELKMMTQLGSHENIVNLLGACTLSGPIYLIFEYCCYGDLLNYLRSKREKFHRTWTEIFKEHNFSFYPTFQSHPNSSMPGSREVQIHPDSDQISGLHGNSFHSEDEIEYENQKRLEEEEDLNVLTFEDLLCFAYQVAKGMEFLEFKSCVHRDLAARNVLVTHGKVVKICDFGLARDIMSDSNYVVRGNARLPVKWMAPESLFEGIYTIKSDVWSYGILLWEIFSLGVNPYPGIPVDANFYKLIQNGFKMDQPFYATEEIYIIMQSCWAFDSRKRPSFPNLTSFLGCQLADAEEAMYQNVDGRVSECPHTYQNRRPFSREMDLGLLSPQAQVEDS
Experiment: FLT-3 kinase DELFIA assay (HTScan FLT-3 Kinase Assay Kit)
Format: biochemical
Settings: 1 uM compound, 20 uM ATP
readout label: inhibition at 1 µM (%)

Examples with their reported inhibition at 1 µM follow.
molecule=CN1CCCN(c2cc3nc(-c4c5cccccc-5[nH]c4=O)[nH]c3cc2F)CC1 experimental_system="FLT-3 kinase (Homo sapiens)" unit_of_measurement=% measured_result=89.8
molecule=O=c1[nH]c2cccccc-2c1-c1nc2cc(N3CCCN(c4ccncc4)CC3)ccc2[nH]1 experimental_system="FLT-3 kinase (Homo sapiens)" unit_of_measurement=% measured_result=89.4

a. O=c1[nH]c2cccccc-2c1-c1nc2cc(N3CCC(N4CCOCC4)CC3)ccc2[nH]1
b. O=c1[nH]c2cccccc-2c1-c1nc2ccccc2[nH]1 [Compound A1, 3-(benzimidazol-2-yl)-1-azaazulen-2-one, reference compound]
Q: // select label with min value of measured inhibition at 1 µM from [ a , b ] # respond with the chosen item's label
Result: b

Origin of the recorded values: patent US8492374B2
